# TEST SUMMARY: Tested in vitro against HSV 2 from Wi-38 cells
# Format: organism-based
# CONDITION DESCRIPTION: human alphaherpesvirus 2, WI-38 cells; read-out: TC50 (the source's name)
PROPERTY MEASURED: CC50

{"columns": ["STRUCTURE AS SMILES", "PROPERTY MEASURED", "RESULT"],
 "data": [
  ["Nc1nc(O)c2ncn(C[C@H](OCP(=O)(O)O)C3CC3)c2n1", "CC50", "> 300 µM"]
]}

* * *

The reader will find reported CC50 values listed item by item below.
# System: CCRF-CEM
# TEST SUMMARY: Cell growth toxicity against CEM cells after treatment with compound for 72 hours
# Type: functional
# CONDITION DESCRIPTION: Homo sapiens

{"columns": ["MOLECULE", "DISPLAY UNIT", "LT GT EQ", "CC50"],
 "data": [
  ["Nc1nc(O)c2ncn(CC(CF)OCP(=O)(O)O)c2n1 (single isomer, unassigned; form 1)", "µM", "=", 427],
  ["Nc1nc(O)c2ncn(CC(CCl)OCP(=O)(O)O)c2n1 (single isomer, unassigned; form 1)", "µM", "=", 870],
  ["C=C[C@H](Cn1cnc2c(O)nc(N)nc21)OCP(=O)(O)O", "µM", ">", 1590],
  ["[N-]=[N+]=NCC(Cn1cnc2c(O)nc(N)nc21)OCP(=O)(O)O (single isomer, unassigned; form 2)", "µM", "=", 134],
  ["[N-]=[N+]=NCC(Cn1cnc2c(O)nc(N)nc21)OCP(=O)(O)O (single isomer, unassigned; form 1)", "µM", ">", 1400],
  ["C[C@@H](Cn1cnc2c(O)nc(N)nc21)OCP(=O)(O)O", "µM", "=", 12],
  ["Nc1nc(O)c2ncn(CC(CF)OCP(=O)(O)O)c2n1 (single isomer, unassigned; form 2)", "µM", "=", 93],
  ["Nc1nc2c(ncn2CCOCP(=O)(O)O)c(=O)[nH]1", "µM", "=", 0.2],
  ["C=C[C@@H](Cn1cnc2c(O)nc(N)nc21)OCP(=O)(O)O", "µM", ">", 1590],
  ["Nc1nc(O)c2ncn(CC(CCl)OCP(=O)(O)O)c2n1 (single isomer, unassigned; form 2)", "µM", ">", 1500],
  ["C[C@H](Cn1cnc2c(O)nc(N)nc21)OCP(=O)(O)O", "µM", "=", 180]
]}

* * *

# CC50 annotations
# TEST SUMMARY: Toxic concentration, in CEM cells estimated by the XTT assay
# Format: toxicity, cell-based
# CONDITION DESCRIPTION: human, CCRF-CEM (CEM) cells; read-out: TC50 (the source's name)

{"columns": ["COMPOUND", "CC50"],
 "data": [
  ["Nc1nc(O)c2ncn(C[C@H](CCF)OCP(=O)(O)O)c2n1", "> 500 µM"],
  ["[N-]=[N+]=NCC[C@@H](Cn1cnc2c(O)nc(N)nc21)OCP(=O)(O)O", "> 500 µM"],
  ["Nc1nc2c(ncn2CC(CO)OCP(=O)(O)O)c(=O)[nH]1 (single isomer, unassigned; form 1)", "> 500 µM"],
  ["[N-]=[N+]=NCC(Cn1cnc2c(O)nc(N)nc21)OCP(=O)(O)O (single isomer, unassigned; form 1)", "> 1000 µM"],
  ["CC[C@H](Cn1cnc2c(O)nc(N)nc21)OCP(=O)(O)O", "1000 µM"],
  ["Nc1nc(O)c2ncn(CC(CCl)OCP(=O)(O)O)c2n1 (single isomer, unassigned; form 2)", "> 500 µM"],
  ["C=C[C@H](Cn1cnc2c(O)nc(N)nc21)OCP(=O)(O)O", "> 1000 µM"],
  ["Nc1nc(O)c2ncn(CC(CF)OCP(=O)(O)O)c2n1 (single isomer, unassigned; form 1)", "> 500 µM"],
  ["Nc1nc(O)c2ncn(C[C@@H](OCP(=O)(O)O)C3CC3)c2n1", "91 µM"]
]}
